// values below are reported GI50
System: SR
Assay: NCI tumour cell line growth inhibition, 48 h
Active and inactive are the calls of the source. Rule as the data show it: active = GI50 up to about 1.1 µM and inactive = higher.
recorded.endpoint: GI50

{"compound": "Cc1cc2cccc(Cl)c2nc1C(=O)c1ccccc1", "target.or.system": "SR", "measurement": "> 100 µM (inactive)"}
{"compound": "O=C(CSc1nc2ccc(I)cc2c(=O)n1Cc1ccccc1)Nc1ccc(Br)cc1", "target.or.system": "SR", "measurement": "11.3 µM (inactive)"}
{"compound": "N#CC(CC(=O)O)=C(c1ccccc1)c1ccccc1", "target.or.system": "SR", "measurement": "> 100 µM (inactive)"}
{"compound": "COc1ccccc1C#C/C=C\\C#Cc1ccccc1C#N", "target.or.system": "SR", "measurement": "4.08 µM (inactive)"}
{"compound": "Cc1ccc(S(=O)(=O)NC(=O)Nc2ccc(C(=O)O)c(O)c2)cc1", "target.or.system": "SR", "measurement": "> 100 µM (inactive)"}
{"compound": "COC(=O)c1cc2c(c3c1CC(Cc1ccccc1)C3=O)CCC2 (stereo unspecified)", "target.or.system": "SR", "measurement": "> 100 µM (inactive)"}
{"compound": "CC(C)C1=CC2=CC[C@@H]3[C@](C)(CCC[C@@]3(C)C(=O)O)[C@H]2CC1", "target.or.system": "SR", "measurement": "> 100 µM (inactive)"}
{"compound": "CC(C)CC(NC(=O)C(COc1ccc([N+](=O)[O-])cc1)Cc1ccccc1)C(=O)Nc1ccccc1 (stereo unspecified)", "target.or.system": "SR", "measurement": "41.5 µM (inactive)"}
{"compound": "COc1ccccc1/C=C1\\C(=O)N(C(=O)c2ccc(NC(C)=O)cc2)N=C1C", "target.or.system": "SR", "measurement": "> 100 µM (inactive)"}
{"compound": "CC1C2CC(C/C2=N/O)C1(C)C (stereo unspecified)", "target.or.system": "SR", "measurement": "> 100 µM (inactive)"}
{"compound": "CC(=O)C1C(=O)C(C(C)=O)C2C3C=CC(C3)C12 (stereo unspecified)", "target.or.system": "SR", "measurement": "> 100 µM (inactive)"}

----------
Test system: SF-539
Experiment: NCI tumour cell line growth inhibition, 48 h
Active and inactive are the calls of the source. No stated cut-off is given here; in the data, active = GI50 up to about 1.1 µM and inactive = higher.
Property: GI50; scope: individual compounds

{"compound": "FC(F)(F)c1cccc2ns[s+]c12", "GI50": "> 100 µM (inactive)"}
{"compound": "COc1nc2nccnc2c(=O)n1C", "GI50": "> 10 µM (inactive)"}
{"compound": "C=CCNC(=S)OCCCCCCCCCC", "GI50": "19 µM (inactive)"}
{"compound": "CCOC(=O)c1c(NC(=S)NCc2ccccc2)sc2c1CCN(C)C2", "GI50": "69.2 µM (inactive)"}
{"compound": "O=C(O)CCC(=O)c1ccc2sc3ccccc3c2c1", "GI50": "> 100 µM (inactive)"}
{"compound": "O=C(O)CCC(N/N=N/c1ccc(-c2nc3ccccc3[nH]2)cc1)C(=O)O (configuration not stated)", "GI50": "> 100 µM (inactive)"}
{"compound": "CC12CC3CC(C)(C1)CC(N=[N+]=[N-])(C3)C2", "GI50": "> 100 µM (inactive)"}
{"compound": "CC1C2CC(C/C2=N/O)C1(C)C (configuration not stated)", "GI50": "> 100 µM (inactive)"}
{"compound": "O=C(C[n+]1ccccc1)NNC(=O)/C(=C/c1ccc2c(c1)OCO2)NC(=O)c1ccccc1", "GI50": "29.4 µM (inactive)"}
{"compound": "O=C(c1ccc(F)cc1)c1cccc(C(=O)c2ccc(F)cc2)n1", "GI50": "30.8 µM (inactive)"}
{"compound": "CN1CCc2c1nc(-c1ccc([N+](=O)[O-])cc1)c1c2N(C)CC1", "GI50": "> 100 µM (inactive)"}
{"compound": "Oc1ccc(Cl)cc1C1=Nn2c(COc3ccc4c(c3)CCCC4)nnc2SC1", "GI50": "16.7 µM (inactive)"}

----------
System: Malme-3M
Test: NCI tumour cell line growth inhibition, 48 h
Calls of active or inactive are those of the source. No stated cut-off is given here; in the data, active = GI50 up to about 1.1 µM and inactive = higher.
Possible outcomes: Y for active, N for inactive

{"molecule": "O=C(c1ccccc1)c1c(C(F)(F)F)[n+]([O-])c2cc(F)c(F)cc2[n+]1[O-]", "assigned.label": "Y"}
{"molecule": "CCOP(=O)(OCC)Oc1c(OC)c2[nH]c(C(=O)OC)cc2c2c(C(=O)O)c[nH]c12", "assigned.label": "N"}
{"molecule": "COc1ccc(/C=C2\\CNC/C(=C\\c3ccc(OC)cc3)C2=O)cc1", "assigned.label": "N"}
{"molecule": "O=C(C1OC1c1ccc(O)cc1)C12CC3CC(CC(C3)C1)C2 (stereo unspecified)", "assigned.label": "N"}
{"molecule": "C/C=C1\\C=C(OC)CN(CCc2c[nH]c3ccccc23)C1", "assigned.label": "N"}
{"molecule": "C[N+](C)(C)CC1CCCC(C[N+](C)(C)C)C1O (stereo unspecified)", "assigned.label": "N"}
{"molecule": "c1ccc(-c2cc(-c3cc(-c4ccccc4)no3)on2)cc1", "assigned.label": "N"}
{"molecule": "c1ccc(-c2cc(-c3ccccc3)nc(-c3ccncc3)c2)cc1", "assigned.label": "N"}
{"molecule": "CCOP(=O)(C/C(O)=C1\\C(=O)C(CCCCNC(=O)OC(C)(C)C)N(Cc2ccccc2)C1=O)OCC (stereo unspecified)", "assigned.label": "N"}
{"molecule": "CCOC1CC2OC(=O)C1C=C2C(=O)OC (stereo unspecified)", "assigned.label": "N"}
{"molecule": "C#CC1(O)CCC2[C@@H]3CCc4cc(Oc5nc(F)nc(-c6c7ccccc7c(SCC)n6CCC)n5)ccc4C3CC[C@@]21C (stereo partly specified)", "assigned.label": "N"}

----------
Measured GI50 of individual entries
System: HOP-92
Test: NCI tumour cell line growth inhibition, 48 h
Activity calls are given as the source filed them. Cut-off read from the data, not from the text of the source: active = GI50 up to about 1.1 µM and inactive = higher.

{"molecule": "CCCCCCCCC1=CCC(CN(C)C)C1=O (stereo unspecified)", "target.or.system": "HOP-92", "GI50": "16.9 µM (inactive)"}
{"molecule": "Cc1ccccc1C(=O)C#Cc1cn(C2CC(O)C(CO)O2)c(=O)[nH]c1=O (stereo unspecified)", "target.or.system": "HOP-92", "GI50": "74.1 µM (inactive)"}
{"molecule": "NC(=O)N/N=C(\\Cc1nc2ccc(C(=O)c3ccccc3)cc2nc1O)C(=O)Nc1ccc(Br)cc1", "target.or.system": "HOP-92", "GI50": "> 100 µM (inactive)"}
{"molecule": "Cn1c(S)nnc1-c1csc(-c2ccc(Cl)cc2)n1", "target.or.system": "HOP-92", "GI50": "12 µM (inactive)"}
{"molecule": "[N-]=[N+]=Nc1ccccc1-c1ccccc1[N+](=O)[O-]", "target.or.system": "HOP-92", "GI50": "72.1 µM (inactive)"}
{"molecule": "O=C(c1ccccc1)c1c(C(F)(F)F)[n+]([O-])c2cc(F)c(F)cc2[n+]1[O-]", "target.or.system": "HOP-92", "GI50": "0.238 µM (active)"}
{"molecule": "CC1(C)/C(=N\\O)C2(OS(=O)(=O)C(F)(F)F)CCC1C2 (stereo unspecified)", "target.or.system": "HOP-92", "GI50": "> 100 µM (inactive)"}
{"molecule": "O=C1N[C@@H]2c3c(Br)sc(Br)c3C(=O)[C@@H]2N1", "target.or.system": "HOP-92", "GI50": "5.56 µM (inactive)"}
{"molecule": "CC(C)(C)C1=C(Br)C(F)(C(C)(C)C)OP1(=O)c1ccccc1 (stereo unspecified)", "target.or.system": "HOP-92", "GI50": "18.7 µM (inactive)"}
{"molecule": "CCOC(=O)C(CC(C)C)NC(=O)C(N)Cc1ccc(N(CCCl)CCCl)cc1 (stereo unspecified)", "target.or.system": "HOP-92", "GI50": "3.18 µM (inactive)"}
{"molecule": "CC(C)=CCc1c(O)ccc2ccc(=O)oc12", "target.or.system": "HOP-92", "GI50": "38.4 µM (inactive)"}

----------
Test system: MOLT-4
Assay: NCI tumour cell line growth inhibition, 48 h
The source made the active and inactive calls. Rule as the data show it: active = GI50 up to about 1.1 µM and inactive = higher.
Classes used: active, inactive

{"compound": "COc1cccc(C(C#N)NNC(=O)c2c(Cl)c(Cl)c(Cl)c(Cl)c2-c2nc3cc(C(=O)c4ccccc4)ccc3[nH]2)c1O (stereo not given)", "assigned.label": "inactive"}
{"compound": "COc1cc(C2C3=C(COC3=O)Oc3cc4c(cc32)OCO4)ccc1OC(C)=O (stereo not given)", "assigned.label": "active"}
{"compound": "COc1ccc(C(c2ccc(OC)cc2)N2C(=O)CCC2C(=O)O)cc1 (stereo not given)", "assigned.label": "inactive"}
{"compound": "Nn1c(-c2ccccc2)nn(C(=O)c2ccccc2)c1=O", "assigned.label": "inactive"}
{"compound": "Oc1ccc(Cl)cc1C1=Nn2c(COc3ccc4c(c3)CCCC4)nnc2SC1", "assigned.label": "inactive"}
{"compound": "C(=NCCN1CCOCC1)=NC1CCCCC1", "assigned.label": "inactive"}
{"compound": "C/C(=N\\NS(=O)(=O)c1ccc(C)cc1)C(CN(C)C)C(c1ccccc1)c1c(O)c2ccccc2oc1=O (stereo not given)", "assigned.label": "inactive"}
{"compound": "O=C(O)c1ccccc1/C=N\\N(CCO)C1=NCCN1", "assigned.label": "inactive"}
{"compound": "COc1cc(/N=N/c2cccc(S(N)(=O)=O)c2)c2ccccc2c1N", "assigned.label": "inactive"}
{"compound": "O=C(c1ccccc1)N1C(=S)N(c2ccc([N+](=O)[O-])cc2)C(=N/c2ccccc2)/C1=N\\c1ccccc1", "assigned.label": "inactive"}
